B1: TSPAN10 (parent)
chain: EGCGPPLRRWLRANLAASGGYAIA

# Variants of: B1
# assay_notes: protein stability index of a GFP-peptide fusion (GPS, HEK-293T) (PSI 1-6); higher = more stable;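 also: lentivirally expressed fusions sorted by FACS into six bins by GFP to DsRed ratio, PSI derived from sequencing read proportions per bin multiplied by bin number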
# setup_conditions: c terminus: a fixed tail appended
observation_type: protein stability index
// no unit, no text: just the number

Look up protein stability index: L7G
1.82

Look up protein stability index: R9Y
2.29

Look up protein stability index: R12K
2.92

Look up protein stability index: E1I
1.81

Look up protein stability index: P5T
2.05

Look up protein stability index: I23F
2.17

Look up protein stability index: R9D
1.9

Look up protein stability index: I23L
2.16

Look up protein stability index: E1P
1.71

Look up protein stability index: I23C
2.15

Look up protein stability index: A13D
1.83

Look up protein stability index: A13W
2.03

Look up protein stability index: L11C
1.68

Look up protein stability index: R8W
1.31

Look up protein stability index: G19S
2.58

Look up protein stability index: G4A
1.54

Look up protein stability index: G4N
2.06

Look up protein stability index: A13F
2.46

Look up protein stability index: Y21K
3.04

Look up protein stability index: L15Y
1.92

Look up protein stability index: L15S
2.94

Look up protein stability index: C3I
2.83

Look up protein stability index: A17S
1.84

Look up protein stability index: R9P
2.54

Look up protein stability index: I23G
2.3

Look up protein stability index: P6N
2.29

Look up protein stability index: N14T
1.86

Look up protein stability index: L11W
1.5

Look up protein stability index: A24D
2.42

Look up protein stability index: W10S
2.81

Look up protein stability index: S18T
2.34

Look up protein stability index: S18R
1.8

Look up protein stability index: P5D
2.38

Look up protein stability index: L15I
1.93

Look up protein stability index: P5C
3.5

Look up protein stability index: W10M
2.62

Look up protein stability index: S18Q
2.04

Look up protein stability index: A13S
2.58

Look up protein stability index: R8S
1.7

Look up protein stability index: W10L
2.42

Look up protein stability index: C3W
1.72

Look up protein stability index: C3P
2.25

Look up protein stability index: A13K
2.95

Look up protein stability index: G2K
2.32

Look up protein stability index: S18V
2.16

Look up protein stability index: N14R
1.74
